Test: Assessment of solubility (McIlvaine buffers, 24 h shake, UPLC-UV)
Format: physicochemical
Settings: pH 4.5, aqueous buffer, kinetic from dmso stock
Procedure: Solubility is measured by the following method. 100 uL, 10 mM DMSO stock solution of each compound is prepared in a 96 well plate format. The experiment is done in single determination at 3 pH values (2.2, 4.5 and 6.8). For each pH and one reference, 40 uL of each compound is needed. McIlvaine pH 2.2: To 2.076 g citric acid monohydrate and 0.043 g Na2HPO4×2H2O add 100 ml deionized water […] The samples are measured with UPLC-UV using the chromatographic method described below. […]
# solubility at 24 h per record follows
Please make sure the unit comes right after the number.

Example entries and their recorded answers appear below.
{"compound": "COc1c(C(=O)O)cnn1-c1cccc(-c2cccc(C)c2OCc2ccc3c(c2)CCN([C@H]2CC[C@H](OC)CC2)C3)n1", "solubility at 24 h": "81 µg/mL"}
{"compound": "COCC(C)N1CCc2cc(COc3c(C)cccc3-c3cccc(-n4ncc(C(=O)O)c4OC)n3)ccc2C1 (stereo not shown)", "solubility at 24 h": "79 µg/mL"}
{"compound": "COc1c(C(=O)O)cnn1-c1cccc(-c2cccc(C)c2OCc2cc(C)c3c(c2C)CCN(C2CCOCC2)C3)n1", "solubility at 24 h": "94 µg/mL"}
{"compound": "COc1c(C(=O)O)cnn1-c1cccc(-c2cccc(C)c2OCc2cc(C)c3c(c2)CCN(C2CCCOC2)C3)n1 (stereo not shown)", "solubility at 24 h": "55 µg/mL"}
{"compound": "CCOc1c(C(=O)O)cnn1-c1cccc(-c2cccc(C)c2OCc2ccc3c(c2C)CCN(C(=O)C2CCOCC2)C3)n1", "solubility at 24 h": "3.1 µg/mL"}

// query # query: solubility at 24 h of entry CCOc1c(C(=O)O)cnn1-c1cccc(-c2cccc(C)c2OCc2ccc3c(c2C)CCN(CC2(C)COC2)CC3)n1
// result 83 µg/mL

// query # query: solubility at 24 h of entry COc1c(C(=O)O)cnn1-c1cccc(-c2ccc(C)cc2OCc2ccc3c(c2C)CCN(C2CCOCC2)C3)n1
// result 120 µg/mL

====

# solubility at 24 h per record follows
Experiment: Assessment of solubility (McIlvaine buffers, 24 h shake, UPLC-UV)
Assay type: physicochemical
Conditions: pH 4.5, aqueous buffer, kinetic from dmso stock
Experimental: Solubility is measured by the following method. 100 uL, 10 mM DMSO stock solution of each compound is prepared in a 96 well plate format. The experiment is done in single determination at 3 pH values (2.2, 4.5 and 6.8). For each pH and one reference, 40 uL of each compound is needed. McIlvaine pH 2.2: To 2.076 g citric acid monohydrate and 0.043 g Na2HPO4×2H2O add 100 ml deionized water […] The samples are measured with UPLC-UV using the chromatographic method described below. […]
Answer in µg/mL, number only, no unit symbol.

{"compound": "COCCOc1c(C(=O)O)cnn1-c1cccc(-c2cccc(C)c2OCc2ccc3c(c2C)CCN(C2CCCOC2)C3)n1 (stereo not drawn)", "unit_of_measurement": "µg/mL", "solubility at 24 h": 78}

// query # query: solubility at 24 h of entry COc1c(C(=O)O)cnn1-c1cccc(-c2cccc(C)c2OCc2ccc3c(c2F)CCN([C@@H]2CCOC2)C3)n1
// result 73

// query # query: solubility at 24 h of entry CCOc1c(C(=O)O)cnn1-c1cccc(-c2cccc(C)c2OCc2ccc3c(c2)CCN(CC2CC(=O)N(C)C2)C3)n1 (stereo not drawn)
// result 72

// query # query: solubility at 24 h of entry CC[C@H](C)Oc1c(C(=O)O)cnn1-c1cccc(-c2cccc(C)c2OCc2ccc3c(c2C)CCN(C2CCCOC2)C3)n1 (stereo partly drawn)
// result 97

// query # query: solubility at 24 h of entry Cc1cccc(-c2cccc(-n3ncc(C(=O)O)c3OC(C)C)n2)c1OCc1ccc2c(c1)CCN(CC1(C)COC1)C2
// result 81

// query # query: solubility at 24 h of entry COc1c(C(=O)O)cnn1-c1cccc(-c2cccc(C)c2OCc2ccc3c(c2C)CCN(CC2CC(F)(F)C2)C3)n1
// result 79

// query # query: solubility at 24 h of entry CCOc1c(C(=O)O)cnn1-c1cccc(-c2cccc(C)c2OCc2ccc3c(c2)CCN(C2CCOC(C)C2)C3)n1 (stereo not drawn)
// result 86

// query # query: solubility at 24 h of entry COc1c(C(=O)O)cnn1-c1cccc(-c2cccc(F)c2OCc2ccc3c(c2)CCN(C2CCOCC2)C3)n1
// result 90

// query # query: solubility at 24 h of entry COc1c(C(=O)O)cnn1-c1cccc(-c2cccc(C)c2OCc2cc(F)c3c(c2)CCN([C@@H]2CCOC2)C3)n1
// result 75

// query # query: solubility at 24 h of entry CCOc1c(C(=O)O)cnn1-c1cccc(-c2cccc(C)c2OCc2ccc3c(c2C)CCN([C@@H]2CCOC2)C3)n1
// result 74
